Assay: qHTS assay for small molecule disruptors of the mitochondrial membrane potential - 1 hr assay (AID 651754); also: nearly all actives have a fitted effect of over 35% in size
Conditions: series mostly up to 92.2 µM
From the text: National Center for Advancing Translational Sciences [NCATS] NIH Chemical Genomics Center [NCGC] National Institutes of Environmental Health Sciences [NIEHS] National Toxicology Program [NTP] Mitochondrial membrane potential (MMP), one of the parameters for mitochondrial function, is generated by mitochondrial electron transport chain that creates an electrochemical gradient by a series of redox reactions. […] The dye accumulates in the mitochondria of healthy cells as aggregates, with red fluorescence. […]
Results filed as inconclusive are left out. Calls of active or inactive are those of the source. Calls follow the shape of the full dose curve.
Pick from yes (1) for active, no (0) for inactive when you respond.

// outcome(item) with item = `Oc1c(Cl)cc(Cl)cc1Sc1cc(Cl)cc(Cl)c1O`
yes (1)

Recorded test outcome, item `CCCCCCc1ccc(O)cc1O`
yes (1)

How did this test come out for `COc1cccc2c1C(=O)c1c(O)c3c(c(O)c1C2=O)C[C@@](O)(C(C)=O)C[C@@H]3O[C@H]1C[C@H](N)[C@H](O)[C@H](C)O1` ?
yes (1)

Identify the outcome logged in this assay for the compound shown: `CC(=O)O[C@]1(C(C)=O)CC[C@H]2[C@@H]3C[C@H](C)C4=CC(=O)CC[C@]4(C)[C@H]3CC[C@@]21C`
no (0)

// param item: `CC(=O)Oc1ccc(C(c2ccc(OC(C)=O)cc2)c2ccccn2)cc1` ; yields the recorded call
no (0)

---

Tested on: AA1029
Assay: qHTS profiling for inhibitors of Plasmodium falciparum proliferation (AID 504749); also: nearly all actives have a fitted effect of over 60% in size
Conditions: P. falciparum in erythrocytes, SYBR Green DNA, 72 h; series mostly up to 28.7 µM
Procedure: NIH National Institute of Allergy and Infectious Diseases [NIAID] NIH Chemical Genomics Center [NCGC] […] Because mature erythrocytes lack DNA, only Plasmodium-derived DNA is detected. NCGC Assay Protocol Summary: The SYBR Green viability assay was adapted from a method described previously (Plouffe et al., 2008). […] The following morning, fluorescence intensity at 485(14) nm excitation and 535(25) nm emission wavelengths was measured on an EnVision (Perkin Elmer) plate reader. […]
Inconclusive results are not listed. Activity calls are given as the source filed them. The call rests on the fitted dose curve; in most records, active means well fitted inhibition curve with a large enough effect; inconclusive means small, poorly fitted or top-dose-only effect; inactive means flat fitted curve, though single readings scatter.
Write down the outcome that applies. Available outcomes: YES (active), NO (inactive)

Query: recorded result category for `NC(=O)C(=O)N/N=C/c1ccc([N+](=O)[O-])o1` in this test
NO

For this molecule, state the assay outcome: `NCCc1ccn[nH]1`
NO

Kindly provide the recorded test outcome for the following molecule: `CC(C)NC[C@@H](O)COc1cccc2ccccc12`
YES

Kindly provide the recorded test outcome for the following molecule: `CCOC(=O)c1cccc(N)c1`
NO

Outcome logged for `COC1=CC(=O)C[C@@H](C)[C@]12Oc1c(Cl)c(OC)cc(OC)c1C2=O` in this assay:
NO

Could you please tell me the result logged for Cc1ccc(C(=O)C(C)CN2CCCCC2)cc1 (stereo unspecified) in this assay?
NO

Per the records of this test, what outcome belongs to `Cc1c(C)n(CCN(C)C)c2ccc(C(=O)OCCN(C)C)cc12` ?
NO

Tell me the recorded outcome of this test for `CC(=O)c1ccc2c(c1)N(CCCN1CCC(CCO)CC1)c1ccccc1S2` .
NO

Entry `COc1ccc(/C=C/C(=O)c2ccc(OC)cc2OC)cc1` : call = ?
YES

Each molecule tested received a call. Report the one for `O=C1c2ccccc2C(=O)C1c1ccccc1` .
NO

Which result was noted for this molecule in the test: `COc1cc(NS(C)(=O)=O)ccc1Nc1c2ccccc2nc2ccccc12`
YES

Dear all, I need the recorded test outcome for `C[C@H](O)C(=O)Nc1c(I)c(C(=O)NC(CO)CO)c(I)c(C(=O)NC(CO)CO)c1I` , thank you.
NO

Would you mind telling me which call this test gave `c1ccc(OCc2ccc(CCCN3CCOCC3)cc2)cc1` ?
NO

What is the recorded call for this molecule in the test? `CC(C)(CO)[C@@H](O)C(=O)NCCCO`
NO

What call does the record list for NC(CS)C(=O)O (stereo unspecified) ?
YES

Lab log entry: `CC(=O)N(O)CCCCCNC(=O)CCC(=O)N(O)CCCCCNC(=O)CCC(=O)N(O)CCCCCN` — outcome as called in the assay?
NO

These data points were gathered from PubChem BioAssay (NCATS).
